targetUnderTest: Bifunctional protein GlmU (Mycobacterium tuberculosis (strain ATCC 25618 / H37Rv)) (UniProt P9WMN3)
Sequence (P9WMN3 whole entry, looked up): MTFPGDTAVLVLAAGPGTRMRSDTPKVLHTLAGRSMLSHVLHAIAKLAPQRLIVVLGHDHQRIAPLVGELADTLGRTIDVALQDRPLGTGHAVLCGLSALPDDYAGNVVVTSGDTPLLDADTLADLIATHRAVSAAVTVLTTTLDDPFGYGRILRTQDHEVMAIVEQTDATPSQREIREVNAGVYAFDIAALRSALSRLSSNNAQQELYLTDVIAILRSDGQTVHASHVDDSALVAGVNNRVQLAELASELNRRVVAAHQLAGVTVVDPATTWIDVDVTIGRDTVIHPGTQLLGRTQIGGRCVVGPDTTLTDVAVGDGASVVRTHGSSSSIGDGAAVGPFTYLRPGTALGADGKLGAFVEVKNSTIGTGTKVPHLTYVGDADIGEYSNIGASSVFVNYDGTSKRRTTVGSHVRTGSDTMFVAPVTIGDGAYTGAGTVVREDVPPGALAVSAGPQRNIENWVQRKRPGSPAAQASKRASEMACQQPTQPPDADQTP
assayProtocol: inhibition of mycobacterial GlmU enzyme – biochemical, glucosamine-1-phosphate acetyltransferase (AID 1376)
condition: M. tuberculosis GlmU acetyltransferase enzyme assay;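 tested at 30 µM in the primary screen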
In all, about 220,000 compounds went through this assay and about 530 (0.24%) were called active. No stated cut-off is given here; in the data, active means inhibition above about 13%; inconclusive means no clear call, values can overlap the other calls; inactive means below that. The full list was thinned out, with actives kept by preference. Measured potencies and affinities stand elsewhere.
Would you mind answering with one of these outcomes? active, inactive

Reference set (5 entries):
compound: Cc1ccc(/C=C2/NC(=O)N(Cc3ccccc3)C2=O)o1
assignedCategory: inactive

compound: COc1ccc(/C=N/NC(=O)CCC(=O)Nc2ccccc2)cc1OC
assignedCategory: inactive

compound: O=C1C2C3C=CC(CC3)C2C(=O)N1/N=C/c1c(O)ccc2ccccc12 (centres undefined)
assignedCategory: inactive

compound: O=C(O)C[C@@H]1C(=O)O[C@@H]2C(COC(=O)c3cc(O)c(O)c(O)c3)O[C@@H](OC(=O)c3cc(O)c(O)c(O)c3)[C@@H](OC(=O)c3cc(O)c(O)c4c3[C@H]1[C@H](O)C(=O)O4)[C@H]2OC(=O)c1cc(O)c(O)c(O)c1 (some centres undefined)
assignedCategory: active

compound: CCOc1cc(CNCc2cccs2)ccc1OCC(=O)NC(C)(C)C
assignedCategory: inactive

What did this assay record as the result for Cc1c(C(=O)O)cccc1-c1ccc(/C=C2/NC(=O)N(c3ccccc3)C2=O)o1 ?
inactive

For O=C(Cn1ccc([N+](=O)[O-])n1)N1CCCCC1 , what call appears in the results of this test?
inactive

Per the assay record, what outcome was assigned to Nc1nc2n(n1)C(c1ccc(F)cc1)CC(c1ccc(F)cc1)N2 (centres undefined) ?
inactive

Short answer needed: outcome of this test for CCc1c(C)sc(NC(=O)OC)c1C(=O)N1CCOCC1 ?
inactive

Check the results log: what was the call for COC(=O)c1cc(-c2ccccc2)n[nH]1 ?
inactive

How did this test come out for CC(C)(C)NC(=S)Nc1ccc(Nc2ccccc2)cc1 ?
active

Dear all, I need the recorded test outcome for N#CCC(=O)N/N=C/c1cccc(Oc2ccccc2)c1 , thank you.
inactive

Record request — test call for Cc1nnc(SCC(=O)Nc2cc(-c3cc(C)c(C)cc3C)nn2-c2ccccc2)s1
inactive

Please share the test call associated with CC(=O)c1c(C)[nH]c(C(=O)COC(=O)CCCOc2ccccc2)c1C .
inactive

Each compound tested received a call. Report the one for CCCN1C(=O)c2cc(C(=O)Nc3ccccc3OC)ccc2C1Nc1ccccc1OC (centres undefined) .
inactive

What did this assay record as the result for O=C(O)c1cc2nccc(-c3ccco3)n2n1 ?
inactive

So what was the verdict on O=C(O)/C=C/C(=O)Nc1ccc2nccnc2c1 in this test?
inactive

Look up the recorded call for CC(C)(C)NC(=S)Nc1ccc(Br)cc1 in this test.
inactive

Check the results log: what was the call for CCN1CCN(C(=O)NCc2ccccc2)CC1 ?
inactive

Could you check what this test reported for Cc1cc2nccc(-c3ccccn3)n2n1 ?
inactive

Which outcome did this test record for the compound Cc1cc(C)n2c(SCCN3C(=O)c4ccccc4C3=O)nnc2n1 ?
inactive

What did the test return for CCCN1C(=O)c2cc(C(=O)Nc3ccccc3C)ccc2C1Nc1ccccc1C (centres undefined) ?
active

Ref: PubChem BioAssay AID1376
